- Tested on: ABUTH
- Protocol description: Herbicidal post-emergence action 1a (greenhouse pots, visual rating)
- Format: in vivo, Abutilon theophrasti
- Condition set: dosage 320 g/ha, visual rating about 3 weeks after treatment
- Protocol: [table] a) Seeds of monocotyledonous and dicotyledonous weeds and crop plants are placed in sandy loam in plastic or organic plant pots, covered with soil and cultivated in a greenhouse under controlled growth conditions. 2 to 3 weeks after sowing, the test plants are treated at the one-leaf stage. […]
Assay endpoint: Post-emergence action against ABUTH in %

Endpoint output: Post-emergence action against ABUTH in % of COC(=O)[C@@H](C)Oc1nn(-c2cnccn2)c(-c2ccc(F)nc2)c1Br . Value? 80%

Endpoint output: Post-emergence action against ABUTH in % of O=C(O)COc1nn(-c2cnccn2)c(-c2cncc(F)c2)c1Cl . Value? 90%

Endpoint output: Post-emergence action against ABUTH in % of CCOC(=O)COc1nn(-c2cnccn2)c(-c2ccc(F)nc2)c1Br . Value? 80%

Endpoint output: Post-emergence action against ABUTH in % of C[C@@H](Oc1nn(-c2cnccn2)c(-c2cncc(F)c2)c1Cl)C(=O)O . Value? 90%

Endpoint output: Post-emergence action against ABUTH in % of CCOC(=O)[C@@H](C)Oc1nn(-c2cnccn2)c(-c2cncc(F)c2)c1Cl . Value? 80%

Endpoint output: Post-emergence action against ABUTH in % of CCOC(=O)COc1nn(-c2cnccn2)c(-c2ccccc2)c1Br . Value? 80%

Endpoint output: Post-emergence action against ABUTH in % of COC(=O)COc1nn(-c2cnccn2)c(-c2ccc(F)c(F)c2)c1Br . Value? 80%

Endpoint output: Post-emergence action against ABUTH in % of C=CCOC(=O)C(C)Oc1nn(-c2cnccn2)c(-c2ccc(F)nc2)c1Br (racemic) . Value? 80%

###

- System: ABUTH
- Protocol description: Herbicidal post-emergence action 1b (twin sowing, 1280 g/ha)
- Type: in vivo, Abutilon theophrasti
- Condition set: dosage 1280 g/ha, visual rating about 3 weeks after treatment
Please go through the items and note down their Post-emergence action at 1280 g/ha against ABUTH in %.
Respond numerically; units are % and should not be typed.

Endpoint output: Post-emergence action at 1280 g/ha against ABUTH in % of CCOC(=O)COc1nn(-c2cnccn2)c(-c2ccc(F)nc2)c1C(F)(F)F [Example I-66] . Value? 90

Endpoint output: Post-emergence action at 1280 g/ha against ABUTH in % of CC(Oc1nn(-c2cnccn2)c(-c2ccc(F)c(F)c2)c1Br)C(=O)O (stereo not shown) [Example I-47] . Value? 90

Endpoint output: Post-emergence action at 1280 g/ha against ABUTH in % of C[C@H](Oc1nn(-c2cnccn2)c(-c2cncc(F)c2)c1Br)C(=O)O [Example I-37] . Value? 90

Endpoint output: Post-emergence action at 1280 g/ha against ABUTH in % of COC(=O)[C@@H](C)Oc1nn(-c2cnccn2)c(-c2cccc(F)c2)c1Br [Example I-20] . Value? 90

###

Please go through the items and note down their Post-emergence action against POLCO in %.
- Test system: POLCO
- Protocol description: Herbicidal post-emergence action 1a (greenhouse pots, visual rating)
- Type: in vivo, Polygonum convolvulus
- Condition set: dosage 320 g/ha, visual rating about 3 weeks after treatment
- Description: [table] a) Seeds of monocotyledonous and dicotyledonous weeds and crop plants are placed in sandy loam in plastic or organic plant pots, covered with soil and cultivated in a greenhouse under controlled growth conditions. 2 to 3 weeks after sowing, the test plants are treated at the one-leaf stage. […]
Respond numerically; units are % and should not be typed.

Endpoint output: Post-emergence action against POLCO in % of CCOC(=O)[C@@H](C)Oc1nn(-c2cnccn2)c(-c2ccc(F)nc2)c1C1CC1 [Example I-88] . Value? 80

Endpoint output: Post-emergence action against POLCO in % of COC(=O)C(C)Oc1nn(-c2cnccn2)c(-c2cncc(F)c2)c1Br (racemic) [Example I-08] . Value? 100

Endpoint output: Post-emergence action against POLCO in % of COC(=O)[C@@H](C)Oc1nn(-c2cnccn2)c(-c2ccnc(F)c2)c1Br [Example I-34] . Value? 100

Endpoint output: Post-emergence action against POLCO in % of CCOC(=O)[C@@H](C)Oc1nn(-c2cnccn2)c(-c2cncc(F)c2)c1Br [Example I-99] . Value? 80

Endpoint output: Post-emergence action against POLCO in % of COC(=O)C(C)Oc1nn(-c2cnccn2)c(-c2ccc(F)c(F)c2)c1Br (racemic) [Example I-16] . Value? 90

Endpoint output: Post-emergence action against POLCO in % of C[C@@H](Oc1nn(-c2cnccn2)c(-c2cncc(F)c2)c1Cl)C(=O)O [Example I-97] . Value? 90

Endpoint output: Post-emergence action against POLCO in % of COC(=O)[C@@H](C)Oc1nn(-c2cnccn2)c(-c2cncc(F)c2)c1Br [Example I-39] . Value? 90

Endpoint output: Post-emergence action against POLCO in % of COC(=O)COc1nn(-c2cnccn2)c(-c2cncc(F)c2)c1Br [Example I-07] . Value? 90

Endpoint output: Post-emergence action against POLCO in % of COC(=O)[C@@H](C)Oc1nn(-c2nccnc2F)c(-c2ccc(F)nc2)c1Br [Example I-80] . Value? 80

Endpoint output: Post-emergence action against POLCO in % of COC(=O)[C@@H](C)Oc1nn(-c2cnccn2)c(-c2cccc(F)c2)c1Br [Example I-20] . Value? 80

Endpoint output: Post-emergence action against POLCO in % of COC(=O)[C@@H](C)Oc1nn(-c2cnccn2)c(-c2ccc(F)nc2)c1Cl [Example I-36] . Value? 100

Endpoint output: Post-emergence action against POLCO in % of C[C@@H](Oc1nn(-c2cnccn2)c(-c2cncc(F)c2)c1Br)C(=O)O [Example I-96] . Value? 80

Endpoint output: Post-emergence action against POLCO in % of COC(=O)[C@@H](C)Oc1nn(-c2cnccn2)c(-c2ccc(F)nc2)c1I [Example I-89] . Value? 90

Endpoint output: Post-emergence action against POLCO in % of CCOC(=O)COc1nn(-c2cnccn2)c(-c2ccc(F)nc2)c1Br [Example I-52] . Value? 80

Endpoint output: Post-emergence action against POLCO in % of O=C(O)COc1nn(-c2cnccn2)c(-c2cccc(F)c2)c1Br [Example I-04] . Value? 90

Endpoint output: Post-emergence action against POLCO in % of C[C@H](Oc1nn(-c2cnccn2)c(-c2cncc(F)c2)c1Br)C(=O)O [Example I-37] . Value? 100

Endpoint output: Post-emergence action against POLCO in % of COC(=O)C(C)Oc1nn(-c2cnccn2)c(-c2ccc(F)c(F)c2)c1C#N (racemic) [Example I-22] . Value? 80

Endpoint output: Post-emergence action against POLCO in % of COC(=O)[C@@H](C)Oc1nn(-c2cnccn2)c(-c2cncc(F)c2)c1C#N [Example I-40] . Value? 80

Endpoint output: Post-emergence action against POLCO in % of COC(=O)C(C)Oc1nn(-c2cnccn2)c(-c2ccc(F)nc2)c1Br (racemic) [Example I-12] . Value? 90

Endpoint output: Post-emergence action against POLCO in % of CCOC(=O)COc1nn(-c2cnccn2)c(-c2ccccc2)c1Br [Example I-01] . Value? 80

Endpoint output: Post-emergence action against POLCO in % of COC(=O)CNC(=O)[C@@H](C)Oc1nn(-c2cnccn2)c(-c2ccc(F)nc2)c1Br [II-03] . Value? 80

Endpoint output: Post-emergence action against POLCO in % of CCOC(=O)COc1nn(-c2cnccn2)c(-c2cncc(F)c2)c1Br [Example I-90] . Value? 80

Endpoint output: Post-emergence action against POLCO in % of CCOC(=O)COc1nn(-c2cnccn2)c(-c2cncc(F)c2)c1F [Example I-94] . Value? 80

Endpoint output: Post-emergence action against POLCO in % of COC(=O)COc1nn(-c2cnccn2)c(-c2ccc(F)nc2)c1C1CC1 [Example I-84] . Value? 80

Endpoint output: Post-emergence action against POLCO in % of C[C@@H](Oc1nn(-c2cnccn2)c(-c2cccc(F)c2)c1Br)C(=O)O [Example I-48] . Value? 100

Endpoint output: Post-emergence action against POLCO in % of COC(=O)[C@@H](C)Oc1nn(-c2cnccn2)c(-c2ccc(F)c(F)c2)c1C#N [Example I-46] . Value? 100

Endpoint output: Post-emergence action against POLCO in % of COC(=O)COc1nn(-c2cnccn2)c(-c2ccnc(F)c2)c1Br [Example I-09] . Value? 100

Endpoint output: Post-emergence action against POLCO in % of COC(=O)COc1nn(-c2cnccn2)c(-c2ccc(F)nc2)c1Br [Example I-11] . Value? 90

Endpoint output: Post-emergence action against POLCO in % of CCOC(=O)COc1nn(-c2cnccn2)c(-c2cncc(F)c2)c1Cl [Example I-91] . Value? 80

Endpoint output: Post-emergence action against POLCO in % of CCOC(=O)[C@@H](C)Oc1nn(-c2cnccn2)c(-c2cncc(F)c2)c1Cl [Example I-98] . Value? 80
